Entry source: DBAASP

Tested on: Pseudomonas aeruginosa ATCC 9027
MEASUREMENT NOTES: ≥ marks a high value that may be exact or a test limit, other limits are often not marked, values filed in µg/mL are converted to µM
READOUT KIND: MIC (µM)

A: CC[C@H](C)[C@H](N)C(=O)N[C@@H](CCCCN)C(=O)N[C@@H](CCCCN)C(=O)N[C@H](C(=O)N[C@@H](C)C(=O)N[C@@H](CO)C(=O)N[C@H](C(=O)O)C(C)C)C(C)C
B: NCCCC[C@H](NC(=O)[C@H](Cc1c[nH]c2ccccc12)NC(=O)[C@H](Cc1c[nH]c2ccccc12)NC(=O)[C@H](CCCN=C(N)N)NC(=O)[C@@H](N)Cc1c[nH]c2ccccc12)C(=O)N[C@@H](Cc1c[nH]c2ccccc12)C(=O)N[C@@H](Cc1c[nH]c2ccccc12)C(N)=O
Ask: // returns A or B , whichever has the lower MIC Answer = label.
Result: B
(B: 25.9 µM, A: 1380 µM)

###

System: Micrococcus luteus A270
READOUT KIND: MIC (µM)
Give your result in µM as a bare value.

Ask: Look up MIC with Micrococcus luteus A270 for this molecule: `CC[C@H](C)[C@H](NC(=O)[C@H](CC(C)C)NC(=O)[C@H](CO)NC(=O)[C@H](CC(C)C)NC(=O)[C@H](CC(C)C)NC(=O)[C@@H](N)CO)C(=O)N[C@@H](CCCN=C(N)N)C(=O)N[C@@H](CCCCN)C(=O)N[C@@H](CC(C)C)C(=O)N[C@@H](CC(C)C)C(=O)N[C@H](C(N)=O)[C@@H](C)O`
Result: 0.4

###

System: Streptococcus mutans
READOUT KIND: MIC

Ask: State the recorded MIC for this entry: `CC(C)C[C@H](NC(=O)[C@H](Cc1cnc[nH]1)NC(=O)[C@H](CCCCN)NC(=O)[C@H](Cc1c[nH]c2ccccc12)NC(=O)[C@H](CCCN=C(N)N)NC(=O)[C@H](CCCCN)NC(=O)[C@H](Cc1ccccc1)NC(=O)[C@H](CC(C)C)NC(=O)[C@@H](N)CCCCN)C(=O)N[C@@H](Cc1ccccc1)C(=O)N[C@@H](CCCN=C(N)N)C(=O)O`
Result: ≥ 40.1 µM

###

Test system: Pseudomonas aeruginosa KCTC 1637
MEASUREMENT NOTES: ≥ marks a high value that may be exact or a test limit, other limits are often not marked, values filed in µg/mL are converted to µM
READOUT KIND: MIC (µM)
Express the result in µM but write the number alone.

These recorded examples may help you get a feel for the data.
[
  {
    "COMPOUND SMILES": "CC(C)C[C@H](NC(=O)[C@H](Cc1ccccc1)NC(=O)[C@H](CCCN=C(N)N)NC(=O)[C@H](CCCCN)NC(=O)[C@H](Cc1c[nH]c2ccccc12)NC(=O)[C@H](CCCN=C(N)N)NC(=O)[C@H](CCC(N)=O)NC(=O)[C@@H](NC(=O)[C@H](Cc1c[nH]c2ccccc12)NC(=O)[C@H](CCCN=C(N)N)NC(=O)[C@H](CCCCN)NC(=O)[C@@H](N)Cc1ccccc1)C(C)C)C(=O)N[C@@H](CCCN=C(N)N)C(N)=O",
    "MIC / µM": 16
  },
  {
    "COMPOUND SMILES": "CC[C@H](C)[C@H](NC(=O)[C@H](CCCCN)NC(=O)[C@H](CCCCN)NC(=O)[C@H](Cc1ccccc1)NC(=O)[C@H](CC(C)C)NC(=O)[C@H](CCCCN)NC(=O)[C@@H](N)Cc1ccccc1)C(=O)N1CCC[C@H]1C(=O)N[C@@H](CCCCN)C(=O)N[C@@H](Cc1ccccc1)C(=O)N[C@@H](CC(C)C)C(=O)N[C@@H](Cc1cnc[nH]1)C(=O)N[C@@H](CC(C)C)C(=O)N[C@@H](C)C(=O)N[C@@H](CCCCN)C(=O)N[C@@H](CCCCN)C(=O)N[C@@H](Cc1ccccc1)C(N)=O",
    "MIC / µM": 1.56
  },
  {
    "COMPOUND SMILES": "CC[C@H](C)[C@H](NC(=O)[C@H](CCCN=C(N)N)NC(=O)[C@H](CCCCN)NC(=O)[C@@H](NC(=O)[C@@H](NC(=O)[C@H](CCCN=C(N)N)NC(=O)[C@@H](N)CCCCN)[C@@H](C)CC)C(C)C)C(=O)N[C@@H](CCCCN)C(=O)N[C@@H](CCCCN)C(=O)N[C@@H](Cc1c[nH]c2ccccc12)C(=O)N[C@@H](CC(C)C)C(=O)N[C@@H](CCCN=C(N)N)C(N)=O",
    "MIC / µM": 8
  }
]

Ask: // returns reported MIC for input `CC[C@H](C)[C@H](NC(=O)[C@H](CCCCN)NC(=O)[C@H](CCCCN)NC(=O)[C@H](Cc1ccccc1)NC(=O)[C@H](CC(C)C)NC(=O)[C@H](CCCCN)NC(=O)[C@H](Cc1c[nH]c2ccccc12)NC(=O)[C@@H](N)CCCCN)C(=O)N1CCC[C@H]1C(=O)N[C@@H](CCCCN)C(=O)N[C@@H](Cc1ccccc1)C(=O)N[C@@H](CC(C)C)C(=O)N[C@@H](Cc1cnc[nH]1)C(=O)N[C@@H](CC(C)C)C(N)=O`
Result: 6.25
